# credit: ChEMBL document CHEMBL1961873

inhibition values by entry
# tgt: Proto-oncogene tyrosine-protein kinase ROS (Homo sapiens)
# condition.info: at 0.1 µM
# Description: GSK_PKIS: ROS mean inhibition at 0.1 uM [Nanosyn]
test.readout: inhibition (%)

mol=Cc1ccc(NC(=O)c2ccnc(N3CCCC3)c2)cc1-c1ccc(C(=O)NCC2CC2)cc1 recorded_measurement=6.76
mol=COc1ccc(-c2coc3ncnc(N)c23)cc1 recorded_measurement=6.03
mol=CCn1c(-c2nonc2N)nc2ccncc21 recorded_measurement=2.31
mol=CCn1c(-c2nonc2N)nc2c(C#CC(C)(C)O)nc(CN3CCCC3)cc21 recorded_measurement=2.54

---

# tgt: Muscle, skeletal receptor tyrosine-protein kinase (Homo sapiens) (UniProt O15146)
# Sequence (whole entry): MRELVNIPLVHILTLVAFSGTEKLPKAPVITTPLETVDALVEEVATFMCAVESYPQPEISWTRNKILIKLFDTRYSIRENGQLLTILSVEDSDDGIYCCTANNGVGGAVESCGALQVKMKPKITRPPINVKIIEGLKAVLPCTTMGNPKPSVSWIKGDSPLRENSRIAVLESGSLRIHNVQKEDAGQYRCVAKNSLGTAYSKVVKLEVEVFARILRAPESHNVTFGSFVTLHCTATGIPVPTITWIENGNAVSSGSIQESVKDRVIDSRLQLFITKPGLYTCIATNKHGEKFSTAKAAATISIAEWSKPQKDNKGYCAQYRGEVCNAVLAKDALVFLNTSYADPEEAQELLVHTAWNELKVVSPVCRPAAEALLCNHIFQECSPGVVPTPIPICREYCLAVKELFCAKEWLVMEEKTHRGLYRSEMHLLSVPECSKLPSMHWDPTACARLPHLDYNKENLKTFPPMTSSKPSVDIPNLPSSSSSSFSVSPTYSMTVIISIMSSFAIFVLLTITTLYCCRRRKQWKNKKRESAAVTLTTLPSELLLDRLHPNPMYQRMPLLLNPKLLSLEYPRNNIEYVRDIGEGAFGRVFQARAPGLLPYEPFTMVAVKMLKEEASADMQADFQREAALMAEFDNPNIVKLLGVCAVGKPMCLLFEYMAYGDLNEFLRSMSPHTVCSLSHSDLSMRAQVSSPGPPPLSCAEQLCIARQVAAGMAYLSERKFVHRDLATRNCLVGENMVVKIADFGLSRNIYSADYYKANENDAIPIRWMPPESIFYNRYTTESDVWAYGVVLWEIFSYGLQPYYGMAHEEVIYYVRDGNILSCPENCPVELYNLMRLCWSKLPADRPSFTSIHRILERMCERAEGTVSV
# condition.info: at 0.1 µM
test.readout: inhibition

molecule=CCn1c(-c2nonc2N)nc2ccncc21 recorded_measurement=-0.65%
molecule="CC1=C(C(=O)Nc2ccc3[nH]ncc3c2)C(c2ccc(F)cc2)NC(=O)N1 (stereo not given)" recorded_measurement=1.49%
molecule=Nc1nc(-c2ccccn2)c(-c2ccc3ncccc3n2)s1 recorded_measurement=3.99%
molecule=Cc1cccc(-c2n[nH]cc2-c2ccc3ncccc3n2)n1 recorded_measurement=0.64%
molecule=COc1cc2ncn(-c3cc(O[C@H](C)c4ccccc4Cl)c(C(N)=O)s3)c2cc1OC recorded_measurement=29.3%
molecule=CS(=O)(=O)CCNCc1ccc(-c2ccc3ncnc(Nc4ccc(OCc5cccc(F)c5)c(C(F)(F)F)c4)c3c2)o1 recorded_measurement=3.27%
molecule=COc1ccc(-c2coc3ncnc(N)c23)cc1 recorded_measurement=4.06%
molecule=COc1ccccc1Nc1ncc(-c2ccccc2)o1 recorded_measurement=4.33%
molecule=NC(=O)c1ccc(-c2nc(-c3ccccn3)c(-c3ccc4c(c3)OCO4)[nH]2)cc1 recorded_measurement=2.51%
molecule=CC(C)=Cc1cccc2c1/C(=N/Nc1ccc(S(N)(=O)=O)cc1)C(=O)N2 recorded_measurement=7%
molecule=CN(C)c1cc2c(Nc3ccc4nc(Cc5ccccc5)[nH]c4c3)ncnc2cn1 recorded_measurement=2.63%
molecule=NS(=O)(=O)c1cccc(-c2ccc3c(NC(=O)C4CC4)n[nH]c3c2)c1 recorded_measurement=0.75%
molecule=CS(=O)(=O)CCNCc1ccc(-c2ccc3ncnc(Nc4ccc(OCc5ccccc5)c(Cl)c4)c3c2)o1 recorded_measurement=3.89%
molecule=NS(=O)(=O)c1ccc(N/N=C2\C(=O)Nc3ccc(C(=O)NCCc4c[nH]cn4)cc32)cc1 recorded_measurement=10.8%
molecule=O=C1NC(=O)C(c2cccc(Cl)c2)=C1Nc1ccc(O)c(Cl)c1 recorded_measurement=0.25%

---

# tgt: NUAK family SNF1-like kinase 1 (Homo sapiens)
# condition.info: at 0.1 µM
Below, each entry is listed with its recorded inhibition.
test.readout: inhibition (%)

mol=CC(C)=Cc1cccc2c1/C(=N/Nc1ccc(S(N)(=O)=O)cc1)C(=O)N2 test_readout=inhibition quantity_unit=% recorded_measurement=80.3
mol=O=C1NC(=O)C(c2ccccc2Cl)=C1Nc1cccc(O)c1 test_readout=inhibition quantity_unit=% recorded_measurement=0.82
mol=Cc1cccc(-c2n[nH]cc2-c2ccc3ncccc3n2)n1 test_readout=inhibition quantity_unit=% recorded_measurement=0.78
mol=O=C1NC(=O)C(N2CCc3ccccc32)=C1c1ccc(Cl)cc1 test_readout=inhibition quantity_unit=% recorded_measurement=4.44
mol=CS(=O)(=O)CCNCc1nc(-c2ccc3ncnc(Nc4ccc(F)c(Cl)c4)c3c2)cs1 test_readout=inhibition quantity_unit=% recorded_measurement=2.92
mol=CS(=O)(=O)CCNCc1ccc(-c2ccc3ncnc(Nc4ccc(OCc5cccc(F)c5)c(C(F)(F)F)c4)c3c2)o1 test_readout=inhibition quantity_unit=% recorded_measurement=2.03
mol=O=C1NC(=O)C(c2cccc(Cl)c2)=C1Nc1ccc(O)c(Cl)c1 test_readout=inhibition quantity_unit=% recorded_measurement=8.01
mol=COc1cc2ncn(-c3cc(O[C@H](C)c4ccccc4Cl)c(C(N)=O)s3)c2cc1OC test_readout=inhibition quantity_unit=% recorded_measurement=24
mol=CCN1CCC(CC(=O)Nc2n[nH]c3nc(-c4cccs4)c(Br)cc23)CC1 test_readout=inhibition quantity_unit=% recorded_measurement=-2.53
mol=CS(=O)(=O)CCN(CC#N)Cc1ccc(-c2ccc3ncnc(Nc4ccc(OCc5cccc(F)c5)c(Cl)c4)c3c2)o1 test_readout=inhibition quantity_unit=% recorded_measurement=0.1

---

# tgt: Serine/threonine-protein kinase D1 (Homo sapiens) (UniProt Q15139)
# Sequence (whole entry): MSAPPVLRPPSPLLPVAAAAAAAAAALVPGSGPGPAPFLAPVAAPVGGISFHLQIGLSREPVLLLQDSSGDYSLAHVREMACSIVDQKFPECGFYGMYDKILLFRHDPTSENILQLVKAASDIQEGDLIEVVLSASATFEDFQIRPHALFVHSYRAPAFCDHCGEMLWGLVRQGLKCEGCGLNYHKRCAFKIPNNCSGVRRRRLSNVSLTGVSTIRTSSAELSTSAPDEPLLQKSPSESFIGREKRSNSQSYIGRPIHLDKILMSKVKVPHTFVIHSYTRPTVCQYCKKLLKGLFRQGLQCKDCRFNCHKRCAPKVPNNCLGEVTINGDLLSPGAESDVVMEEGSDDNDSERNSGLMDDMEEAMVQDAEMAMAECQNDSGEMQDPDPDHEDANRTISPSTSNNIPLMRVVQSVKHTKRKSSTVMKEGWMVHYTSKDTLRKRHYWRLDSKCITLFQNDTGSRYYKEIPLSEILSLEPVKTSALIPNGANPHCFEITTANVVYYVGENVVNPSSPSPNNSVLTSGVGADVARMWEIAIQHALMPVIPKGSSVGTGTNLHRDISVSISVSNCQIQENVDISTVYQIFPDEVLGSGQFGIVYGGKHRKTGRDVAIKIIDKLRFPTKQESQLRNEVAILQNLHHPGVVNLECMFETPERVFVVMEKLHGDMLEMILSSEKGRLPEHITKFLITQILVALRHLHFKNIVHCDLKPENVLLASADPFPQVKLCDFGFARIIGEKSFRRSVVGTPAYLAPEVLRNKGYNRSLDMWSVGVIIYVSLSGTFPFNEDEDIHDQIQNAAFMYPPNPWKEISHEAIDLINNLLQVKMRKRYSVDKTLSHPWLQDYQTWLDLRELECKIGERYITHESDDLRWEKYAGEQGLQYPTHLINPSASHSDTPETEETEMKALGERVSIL
# condition.info: at 1 µM
test.readout: inhibition (%)

compound="CC1=C(C(=O)Nc2ccc3[nH]ncc3c2)C(c2ccc(Cl)c(Cl)c2)CC(=O)N1 (configuration not stated)" recorded_measurement=4.46
compound=CCn1c(-c2nonc2N)nc2cnc(Oc3cccc(NC(=O)c4ccc(OCCN5CCOCC5)cc4)c3)cc21 recorded_measurement=3.36
compound=Nc1nc(-c2ccc3c(c2)C(=Cc2cc(Br)c(O)c(Br)c2)C(=O)N3)cs1 recorded_measurement=-1.78
compound=COc1cc2ncn(-c3cc(OCc4ccccc4Cl)c(C(N)=O)s3)c2cc1OC recorded_measurement=0.57
compound=Nc1nc(-c2ccccn2)c(-c2ccc3ncccc3n2)s1 recorded_measurement=4.64
compound=CS(=O)(=O)CCNCc1nc(-c2ccc3ncnc(Nc4ccc(F)c(Cl)c4)c3c2)cs1 recorded_measurement=2.6
compound=COc1cc(C)c(NC(=O)CN(C)C)cc1Nc1nc(Nc2cccc(F)c2C(N)=O)c2cc[nH]c2n1 recorded_measurement=18.1

---

// reported inhibition per item
# tgt: Tyrosine-protein kinase Fes/Fps (Homo sapiens) (UniProt P07332)
# Sequence (P07332 whole entry): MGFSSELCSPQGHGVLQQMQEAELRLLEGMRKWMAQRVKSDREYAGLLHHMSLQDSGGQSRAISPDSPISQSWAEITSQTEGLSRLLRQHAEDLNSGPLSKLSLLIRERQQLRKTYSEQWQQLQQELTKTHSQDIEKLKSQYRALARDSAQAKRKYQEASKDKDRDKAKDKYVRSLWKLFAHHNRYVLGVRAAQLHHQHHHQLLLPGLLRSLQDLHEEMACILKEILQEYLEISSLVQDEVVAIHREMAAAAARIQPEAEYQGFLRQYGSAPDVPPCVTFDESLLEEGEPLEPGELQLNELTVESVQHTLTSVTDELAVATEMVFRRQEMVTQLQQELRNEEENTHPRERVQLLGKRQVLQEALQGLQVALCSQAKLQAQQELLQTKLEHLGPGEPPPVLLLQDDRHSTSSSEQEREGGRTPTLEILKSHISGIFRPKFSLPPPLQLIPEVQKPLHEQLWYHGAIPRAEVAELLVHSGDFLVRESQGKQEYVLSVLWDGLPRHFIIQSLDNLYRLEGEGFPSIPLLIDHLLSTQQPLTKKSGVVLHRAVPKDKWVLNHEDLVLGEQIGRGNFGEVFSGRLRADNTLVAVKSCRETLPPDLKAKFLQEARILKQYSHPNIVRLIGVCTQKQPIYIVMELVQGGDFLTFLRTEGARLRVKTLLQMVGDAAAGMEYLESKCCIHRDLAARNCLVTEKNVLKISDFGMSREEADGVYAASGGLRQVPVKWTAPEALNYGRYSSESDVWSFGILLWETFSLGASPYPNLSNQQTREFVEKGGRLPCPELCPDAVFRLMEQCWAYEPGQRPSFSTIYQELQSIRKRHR
# condition.info: at 1 µM
test.readout: inhibition (%)

molecule=COc1ccc(COc2ccc(Cc3cnc(N)nc3N)cc2OC)cc1 test_readout=inhibition recorded_measurement=2.24
molecule=O=C1NC(=O)C(N2CCc3ccccc32)=C1c1ccc(Cl)cc1 test_readout=inhibition recorded_measurement=7.35
molecule=CCCN1CCC(Oc2cc(Nc3nc(Nc4cccc(F)c4C(N)=O)c4cc[nH]c4n3)c(OC)cc2Cl)CC1 test_readout=inhibition recorded_measurement=8.02
molecule=COc1cccc(-n2ncc3c(N/N=C/c4cccc(F)c4)ncnc32)c1 test_readout=inhibition recorded_measurement=0.83
molecule=COc1cc2ncn(-c3cc(OCc4ccccc4C(F)(F)F)c(C(N)=O)s3)c2cc1OC test_readout=inhibition recorded_measurement=1.4
molecule=CC(C)=Cc1cccc2c1/C(=N/Nc1ccc(S(N)(=O)=O)cc1)C(=O)N2 test_readout=inhibition recorded_measurement=2.29
molecule=Cc1cc(O)cc(C)c1/C=C/c1cncc(-c2nn[nH]n2)c1 test_readout=inhibition recorded_measurement=3.8
molecule=Cc1nn(C)c2cc(N(C)c3ccnc(Nc4cccc(S(N)(=O)=O)c4)n3)ccc12 test_readout=inhibition recorded_measurement=6.14
molecule=NS(=O)(=O)c1cccc(-c2ccc3c(NC(=O)C4CC4)n[nH]c3c2)c1 test_readout=inhibition recorded_measurement=-4
molecule=Cn1cc(C=C2C(=O)Nc3cccnc32)c2ccccc21 test_readout=inhibition recorded_measurement=2.19
molecule=COc1cc2ncn(-c3cc(O[C@H](C)c4ccccc4Cl)c(C(N)=O)s3)c2cc1OC test_readout=inhibition recorded_measurement=5.11
molecule=Cc1ccc(NC(=O)c2ccnc(N3CCCC3)c2)cc1-c1ccc(C(=O)NCC2CC2)cc1 test_readout=inhibition recorded_measurement=5.19
molecule=COc1ccc(-c2coc3ncnc(N)c23)cc1 test_readout=inhibition recorded_measurement=5.04
molecule=CCn1c(-c2nonc2N)nc2c(C#CC(C)(C)O)nc(OC[C@@H](N)c3ccccc3)cc21 test_readout=inhibition recorded_measurement=5.13
molecule=Nc1ncnc2occ(-c3ccc(NC(=O)Nc4cc(C(F)(F)F)cc(C(F)(F)F)c4)cc3)c12 test_readout=inhibition recorded_measurement=4.84
molecule="CC1=C(C(=O)Nc2ccc3[nH]ncc3c2)C(c2ccc3ccccc3c2)CC(=O)N1 (centres undefined)" test_readout=inhibition recorded_measurement=2.99
molecule=COc1cc2ncn(-c3cc(O[C@@H](C)c4ccccc4Cl)c(C(N)=O)s3)c2cc1OC test_readout=inhibition recorded_measurement=2.83
molecule=O=C(Nc1n[nH]c2nc(-c3ccco3)c(Br)cc12)C1CC1 test_readout=inhibition recorded_measurement=3.27
molecule=COc1ccccc1Nc1ncc(-c2ccccc2)o1 test_readout=inhibition recorded_measurement=3.85
